Measured DC50 of individual entries
target: KRAS G12V (Homo sapiens, UniProt P01116, G12V); construct: SW620-KRAS (G12V)-HiBit-KI cell (Pharmaron); host or cells: SW620-KRAS (G12V)-HiBit-KI cells (HiBiT knock-in at the endogenous KRAS locus); test: KRAS G12V HiBit assay; assay type: cell-based; details: SW620-KRAS (G12V)-HiBit-KI cells, compound treatment for 24 hours, class symbols
Sequence (P01116 1-188 isoform P01116-2 G12V): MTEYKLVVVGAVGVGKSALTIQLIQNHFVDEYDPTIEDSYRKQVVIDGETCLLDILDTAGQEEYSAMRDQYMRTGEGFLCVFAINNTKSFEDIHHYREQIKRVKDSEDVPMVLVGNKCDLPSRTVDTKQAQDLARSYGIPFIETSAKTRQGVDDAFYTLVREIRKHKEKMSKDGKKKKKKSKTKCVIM

compound	study target	result type	result
C#Cc1c(F)ccc2cc(O)cc(-c3ncc4c(N5CCC[C@@](C)(O)C5)nc(OCC5(CN6CCN(CCN7CCN(c8ccc9c(c8)n(C)c(=O)n9C8CCC(=O)NC8=O)CC7)CC6)CC5)nc4c3F)c12 (some centres unmarked)	KRAS G12V (Homo sapiens, UniProt P01116, G12V)	DC50	> 100 nM

# context switch: different compound, same DC50
Supply DC50 value. Item: CCc1c(F)ccc2cc(O)cc(-c3ncc4c(N5CCC[C@@](C)(O)C5)nc(OC[C@@]56CCCN5[C@H](COC(=O)N5CCC(CN7C8CCC7CC(c7ccc9c(c7)n(C)c(=O)n9C7CCC(=O)NC7=O)C8)CC5)CC6)nc4c3F)c12 (some centres unmarked)
10 to 100 nM
